target: eTau2 (UniProt P10636); test: relative binding affinity, method not named; eTau 2
QUANTITY NAME: Kd (nM)
The response must be a number in nM with no trailing unit.

Here's what some known entries look like.
Name the reported Kd value associated with the binder humanized IPN002 variant VH1/Vk3 (antibody, V domains shown) VH: EVHLVESGGALVKPGGSLRLSCAASGFSFSKYGMSWVRQAPGKGLEWVATISSSGSRTYYPDSVKGRFTISRDNAKNTLYLQMSSLKSEDTAMYYCSISWDGAMDYWGQGTSVTVSS VL: DVVMTQSPLSLPVTLGQPASISCKSSQSIVHSNGNTYLEWYLQKPGQSPQLLVYKVSNRFSGVPDRFSGSGSGTDFTLKISRVEAEDVGVYYCFQGSLVPWAFGGGTKVEIK
0.444

Please report the recorded Kd for humanized IPN002 variant VH3/Vk2 (antibody, V domains shown) VH: EVQLVESGGALVKPGGSLRLSCAASGFSFSKYGMSWVRQAPGKGLEWVATISSSGSRTYYPDSVKGRFTISRDNAKNTLYLQMNSLRAEDTAMYYCSISWDGAMDYWGQGTTVTVSS VL: DVVMTQSPLSLPVTLGQPASISCKSSQSIVHSNGNTYLEWYLQKPGQSPQLLVYKVSNRFSGVPDRFSGSGSGTDFTLKISRVEAEDVGTYYCFQGSLVPWAFGGGTKVEIK .
0.408

Further cases:
Need Kd of humanized IPN002 variant VH2/Vk2 (antibody, V domains shown) VH: EVHLVESGGALVKPGGSLRLSCAASGFSFSKYGMSWVRQAPGKGLEWVATISSSGSRTYYPDSVKGRFTISRDNAKNTLYLQMNSLRAEDTAMYYCSISWDGAMDYWGQGTTVTVSS VL: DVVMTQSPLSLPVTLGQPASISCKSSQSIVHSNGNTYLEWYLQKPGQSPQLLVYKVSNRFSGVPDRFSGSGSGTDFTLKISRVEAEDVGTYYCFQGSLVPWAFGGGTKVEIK , thanks.
0.283

Provenance of the data: patent US20150232544A1
